The origin of these recorded values is the supplement of paper PMC13380429.

Tested on: Calu-3
Assay: relative viability EC50 (midpoint between 100% and the lowest measured viability); higher = less toxic
Conditions: 72 h
quantityKind: relative viability EC50

Study these solved cases before continuing.
{"columns": ["molSmiles", "relative viability EC50"],
 "data": [
  ["Cc1nc(Nc2n[nH]c3c2CN(C(=O)N[C@H](CN(C)C)c2ccccc2)C3(C)C)c2sccc2n1", "0.571 µM"],
  ["CC[C@@]1(O)C(=O)OCc2c1cc1n(c2=O)Cc2cc3ccccc3nc2-1", "0.159 µM"]
]}

CO[C@@]1(NC(=O)CSC[C@@H](N)C(=O)O)C(=O)N2C(C(=O)O)=C(CSc3nnnn3C)CS[C@@H]21 yielded relative viability EC50 of > 10 µM

C[Se]C[C@H](N)C(=O)O yielded relative viability EC50 of > 10 µM

Cc1cccc(Oc2cnc(=O)[nH]c2)c1 yielded relative viability EC50 of > 10 µM

----------
Tested on: A549-ACE2
Experiment: drug-induced phospholipidosis relative to tamoxifen; higher = more phospholipidosis
Settings: 0.833333 µM; 72 h
drug-induced phospholipidosis listing for selected compounds.
Give just the number in %; leave the unit off.

Study these solved cases before continuing.
{"columns": ["compound", "drug-induced phospholipidosis / %"],
 "data": [
  ["CN1[C@@H]2CC[C@H]1C[C@@H](OC(c1ccccc1)c1ccccc1)C2 [benztropine-mesylate]", 3.92],
  ["CC1(C)CC[C@]2(C(=O)O)CC[C@]3(C)[C@H](C(=O)C=C4[C@@]5(C)C=C(C#N)C(=O)C(C)(C)[C@@H]5CC[C@]43C)[C@@H]2C1", -7.17],
  ["O=C1Cc2c([nH]c3ccc(Br)cc23)-c2ccccc2N1", 0.874],
  ["CCN(CC)CCCCN1c2ccccc2Oc2ccc(Cl)cc21", 1.09]
]}

Now consider a different compound.
O=C(OCC(O)CO)c1ccccc1Nc1ccnc2cc(Cl)ccc12 (stereo not given) yielded drug-induced phospholipidosis of -3.87

----------
Tested on: HepG2
Assay: cell viability relative to DMSO; higher = less toxic
Details: 72 h; 1000 nM
In plain terms, low cell viability, meaning strictly below 90%, gives 1 (yes), and everything else gives 0 (no).

Example entries begin here.
{"columns": ["compound", "studyTarget", "label"],
 "data": [
  ["COc1ccc(CC(C)NCC(O)c2ccc(O)c(NC=O)c2)cc1 (stereo not given)", "HepG2", "0 (no)"],
  ["CCc1c(C(=O)C(N)=O)c2c(OCC(=O)O)cccc2n1Cc1ccccc1", "HepG2", "0 (no)"],
  ["C[Se]C[C@H](N)C(=O)O", "HepG2", "0 (no)"],
  ["COc1ccc(C2(CNC(=O)c3ccc(NC(=O)c4ccco4)cc3)CCOCC2)cc1", "HepG2", "0 (no)"]
]}

Now for a further compound.
In: Report whether reported cell viability is lower than 90% (strictly) for COc1ccc(-c2ccc3c(N4CCOC[C@@H]4C)nc(N4CCOC[C@@H]4C)nc3n2)cc1CO
Out: 1 (yes)

----------
System: Caco-2
Assay: cell viability relative to DMSO; higher = less toxic
Settings: 72 h; 10 nM
In plain terms, low cell viability, meaning strictly below 90%, gives Criterion met, and everything else gives Criterion not met.

Example entries begin here.
{"columns": ["molecule", "label"],
 "data": [
  ["CC1(C)S[C@@H]2[C@H](NC(=O)[C@H](NC(=O)N3CCN(S(C)(=O)=O)C3=O)c3ccccc3)C(=O)N2[C@H]1C(=O)O [mezlocillin]", "Criterion not met"],
  ["Cn1cc(-c2ccc3c(c2)CCN3C(=O)Cc2cccc(C(F)(F)F)c2)c2c(N)ncnc21", "Criterion met"]
]}

Now for a further molecule.
In: Report whether reported cell viability is lower than 90% (strictly) for O=C(Nc1ccc(S(=O)(=O)C(F)(F)F)cc1)C1=CCN(c2ncccc2C(F)(F)F)CC1
Out: Criterion not met

----------
System: U2OS
Test: cell viability relative to DMSO; higher = less toxic
Conditions: 72 h; 1000 nM
quantityKind: cell viability
Note: state the figure and append the unit.

{"columns": ["compound", "cell viability"],
 "data": [
  ["O=C1NCN(c2ccccc2)C12CCN(CC1COc3ccccc3O1)CC2 (configuration not stated) [spiroxatrine]", "94.8%"],
  ["CC(C)(C)c1[nH]cnc1/C=c1\\[nH]c(=O)/c(=C/c2ccccc2)[nH]c1=O [plinabulin]", "22.3%"]
]}

CC(C)(CC(=O)N1CCCC1)NCC(=O)N1C[C@@H](F)C[C@H]1C#N [DBPR108] yielded cell viability of 100%

CS(=O)(=O)c1ccc(-c2nnc(/C=C/c3nnc(-c4ccc(C#N)cc4)o3)n2-c2ccccc2Cl)nc1 [G007-LK] yielded cell viability of 85.8%

C1CCC2(CC1)CCNCC2 [4,4-pentamethylenepiperidine] yielded cell viability of 94.9%

CC1(C)Cc2c(-c3ccccc3)c(-c3ccc(Cl)cc3)c(CC(=O)O)n2C1 [licofelone] yielded cell viability of 102%

NC(=O)c1cn(Cc2c(F)cccc2F)nn1 [rufinamide] yielded cell viability of 98%

C[C@](N)(Cc1ccc(O)c(O)c1)C(=O)O [methyldopa] yielded cell viability of 97.8%

OCC(O)CN1CCN(c2ccccc2)CC1 (configuration not stated) [dropropizine] yielded cell viability of 97.7%

COc1ccc(Cl)cc1NC(=O)Nc1cc(C)nc2ccccc12 [PQ-401] yielded cell viability of 101%

OC[C@H]1O[C@@H](Oc2ccc(O)cc2)[C@H](O)[C@@H](O)[C@@H]1O [arbutin] yielded cell viability of 97.5%

----------
Test system: Calu-3
Assay: cell viability relative to DMSO; higher = less toxic
Settings: 72 h; 10000 nM
cell viability listing for selected compounds.
Give just the number in %; leave the unit off.

Study these solved cases before continuing.
{"columns": ["compound", "cell viability [%]"],
 "data": [
  ["CC(C)(C)CC(C)(C)c1ccc(O)c(Cc2ccc(Cl)cc2Cl)c1", 98.5],
  ["CC(C)c1cccc2c(-c3ccccc3)cc(-c3ccc(-c4ccc(C(=O)O)cc4)[nH]3)nc12", 103],
  ["Cc1cc(Cn2cnc3c2C[C@@H](C(=O)O)N(C(=O)C(c2ccccc2)c2ccccc2)C3)ccc1N(C)C", 114]
]}

N#CCCCSC(=N)N yielded cell viability of 93.1

O=C(Nc1ccc(Br)cc1)c1cc(Br)cc(Br)c1O yielded cell viability of 91.2

Cc1cc(=O)oc2c(C=O)c(O)ccc12 yielded cell viability of 97.9

O=c1c2ccccc2[se]n1-c1ccccc1 yielded cell viability of 87.7

----------
Test system: HepG2
Test: cell viability relative to DMSO; higher = less toxic
Conditions: 72 h; 100 nM
cell viability listing for selected compounds.
Give just the number in %; leave the unit off.

Study these solved cases before continuing.
{"columns": ["compound", "quantityKind", "unitsLabel", "assayValue"],
 "data": [
  ["O=C1NCN(c2ccccc2)C12CCN(CC1COc3ccccc3O1)CC2 (centres undefined) [spiroxatrine]", "cell viability", "%", 87.6],
  ["C=CC(=O)Nc1cccc(Oc2nc(Nc3ccc(N4CCN(C)CC4)cc3)nc3ccsc23)c1 [olmutinib]", "cell viability", "%", 100],
  ["Clc1ccccc1C(c1ccccc1)(c1ccccc1)n1cccn1 [TRAM-34]", "cell viability", "%", 93.5],
  ["N[C@H]1C[C@@H]1c1ccc(-c2cccc(O)c2)cc1 [OG-L002]", "cell viability", "%", 100],
  ["CCCOc1ccc(S(=O)(=O)N2CCN(CCO)CC2)cc1-c1nc2c(CCC)cn(CC)c2c(=O)[nH]1 [mirodenafil]", "cell viability", "%", 108],
  ["NC(=O)NCCC[C@H](N)C(=O)O [L-citrulline]", "cell viability", "%", 92.7],
  ["CC1(C)S[C@@H]2[C@H](NC(=O)[C@H](NC(=O)N3CCN(S(C)(=O)=O)C3=O)c3ccccc3)C(=O)N2[C@H]1C(=O)O [mezlocillin]", "cell viability", "%", 91.1],
  ["COc1cc(C)c(/C=C/C(C)=C/C=C/C(C)=C/C(=O)O)c(C)c1C [acitretin]", "cell viability", "%", 98.7]
]}

Now consider a different compound.
CC(=O)N(OCc1ccccc1)[C@@H]1c2cc(C#N)ccc2OC(C)(C)[C@H]1O yielded cell viability of 96.2

----------
drug sensitivity score listing for selected molecules.
System: Vero E6
Assay: drug sensitivity score (DSS) for viability; higher = more toxic; extreme values may be limits of the assay
Details: 72 h
API doc: respond with a numeric literal and nothing else, no unit.

Study these solved cases before continuing.
{"columns": ["molecule", "quantityKind", "assayValue"],
 "data": [
  ["C=CC(=O)Nc1cccc(Oc2nc(Nc3ccc(N4CCN(C)CC4)cc3)nc3ccsc23)c1 [olmutinib]", "drug sensitivity score", 6.5],
  ["CN(C)c1nc(N)c(C(=O)Nc2cccnc2)nc1Cl [ACDPP]", "drug sensitivity score", 0],
  ["CCn1cnc2c(Nc3cccc(Cl)c3)nc(N[C@@H]3CCCC[C@@H]3N)nc21", "drug sensitivity score", 5.6]
]}

Cc1cc2cc3c(C)cc(=O)oc3c(C)c2o1 [trioxsalen] yielded drug sensitivity score of 0

Clc1ccccc1C(c1ccccc1)(c1ccccc1)n1cccn1 [TRAM-34] yielded drug sensitivity score of 0
